Data origin, for the record: PubChem BioAssay AID330

- Test system: P388 leukemia ip, CD2F1 mice, survival T/C
- assay.method.text: NCI In Vivo Anticancer Drug Screen. Data for tumor model P388 Leukemia (intraperitoneal) in CD2F1 (CDF1) mice
- conditions: endpoint: median survival time; dose: 50.0 mg/kg/injection; schedule: Q01DX009 (ip); vehicle: water
Inconclusive results and toxic doses are left out. The calls were made as follows: active = survival T/C of 150% or more; inactive = T/C below 125% in these data.
In this exercise, the only acceptable responses are active, inactive

compound	assigned.class
COc1ccc(C(O)c2ncccc2C)cc1OC (stereo not drawn)	inactive
CCN(CC)CCCC(C)NS(=O)(=O)c1cccc2c(N(C)C)cccc12 (stereo not drawn)	inactive
O=C(O)/C=N/NS(=O)(=O)c1ccccc1	active
CCOCCC(=O)NCC(=O)NC1C(CO)OC(Nc2ncnc3nc[nH]c23)C(O)C1O (stereo not drawn)	inactive
NC(CCS(=O)(=O)NCCCl)C(=O)O (stereo not drawn)	inactive
CC1=C(c2ccccc2)OS(=O)(=O)NC1=O	inactive

Record request — test call for Nc1ncnc2c1c1c(=O)[nH]cnc1n2C1OC(CO)C(O)C1O (stereo not drawn)
inactive

Record request — test call for O=C(O)c1nnc(C(=O)O)nn1
inactive

---

- Tested on: P388 leukemia ip, CD2F1 mice, survival T/C
- assay.method.text: NCI In Vivo Anticancer Drug Screen. Data for tumor model P388 Leukemia (intraperitoneal) in CD2F1 (CDF1) mice
- conditions: endpoint: median survival time; dose: 100.0 mg/kg/injection; schedule: Q01DX009 (ip); vehicle: saline with Tween-80
Toxic doses and inconclusive results are not listed. How the source made its calls: active means survival T/C of 150% or more; inactive means T/C below 125% in these data.
In this exercise, the only acceptable responses are YES (active), NO (inactive)

Worked cases, answers included:
compound	assigned.class
O=C(/C=C/C=C/c1ccccc1)c1ccco1	NO
COc1ccc2ccccc2c1/C=N/N1CCCCC1	NO
CCSCCC1(CCC(C)C)C(=O)NC(=Nc2ccccc2)NC1=O (configuration not stated)	NO
COc1cccc(CC(=O)NCCc2ccc(OC)c(OC)c2)c1	NO
CCC(SC)C(=O)c1ccccc1 (configuration not stated)	NO
Cc1cc(O)c(C(c2ccccc2)c2c(O)cc(C)[nH]c2=O)c(=O)[nH]1	NO

Record request — test call for CCOC(=O)CCC(NC(=O)N(CCCl)CCCl)C(=O)OCC (configuration not stated)
YES

Record request — test call for N#CN=CN(Cc1ccccc1)Cc1ccccc1
NO

Record request — test call for COc1ccc(-n2c(-c3ccc(Cl)cc3)csc2=N)c(OC)c1
NO

Record request — test call for O=C1CN=C(c2ccccn2)c2cc(Cl)ccc2N1CCO
NO

Record request — test call for [O-]/[N+](=C\c1ccccc1)CC1(O)CCCCC1
NO

Record request — test call for ClC1c2ccccc2Cc2cccnc21 (configuration not stated)
NO

---

- Tested on: P388 leukemia ip, CD2F1 mice, survival T/C
- assay.method.text: NCI In Vivo Anticancer Drug Screen. Data for tumor model P388 Leukemia (intraperitoneal) in CD2F1 (CDF1) mice
- conditions: endpoint: median survival time; dose: 200.0 mg/kg/injection; schedule: Q01DX001 (ip); vehicle: Klucel (hydroxypropylcellulose) (HPC); higher = longer survival
- Description: The antitumor activity of compounds was measured in mice bearing transplantable tumors. Survival or tumor size were measured and the results are expressed as the measurement made in the treated group (T) divided by the measurement made in the vehicle treated control group (C). The tumor model used in this assay is P388 Leukemia (intraperitoneal) in CD2F1 (CDF1) mice
Inconclusive results and toxic doses are left out.
Recorded T/C by entry

Reference set, count: 8
compound	T/C
CS(=O)(=O)OCCN(CCOS(C)(=O)=O)c1ccc([N+](=O)[O-])cc1[N+](=O)[O-]	100 % of control
COc1cc(C/C(=C\c2ccc3c(c2)OCO3)[N+](=O)[O-])ccc1OCc1ccccc1	96 % of control
COc1ccc(C2CC(=O)CC2c2ccc(OC)cc2)cc1 (configuration not stated)	100 % of control
CC12CSC(C)(SC1)SC2	100 % of control
CC1(CC(=O)O)OC(c2ccccc2)=CC1=O (configuration not stated)	92 % of control
Cc1ccc(S(=O)(=O)N/N=C/c2c(Cl)n(C(=O)c3ccccc3F)c3ccccc23)cc1	90 % of control
CC1=NCc2c(nnn2C)N1	101 % of control
O=c1[nH]cc(-c2ccccc2)c(=O)[nH]1	98 % of control

Please look up its T/C: O=c1oc2cc(-c3c(O)c4ccccc4oc3=O)c(O)cc2s1
104 % of control

Please look up its T/C: O=C(O)C1(Cc2ccccc2)C(=O)C=Cc2ccccc21 (configuration not stated)
101 % of control
